Sourced from the supplement of paper PMC11451515

Tested on: SEM cells
experiment: cell viability relative to DMSO control; higher = less cytotoxic
applied.conditions: RPMI 5 mM glucose + 10% FBS; 48 h; 5.12 µM
readout.type: cell viability

Reference set (4 entries):
> print(dat)
                                   compound    readout.type  recorded.result
1      O=C1\C=C/C=C2/[C@H]3CNC[C@H](C3)CN12  cell viability             113%
2                   CC(C)(S)[C@@H](N)C(=O)O  cell viability             113%
3  N#CC(c1ccnc(NCCc2cccnc2)n1)c1nc2ccccc2s1 (stereo not given)  cell viability             140%
4  C[C@]12Cc3cn[nH]c3C[C@@H]1CC[C@@H]1[C@@H]2CC[C@@]2(C)[C@H]1CC[C@]2(C)O  cell viability            99.4%

Return cell viability for the following compound: "CCN1C[C@H](C)[N]2C(=C(O)C3=C2\C(=N/N(CC4=CC=C(F)C(=C4)Cl)C3=O)C(=O)NC)C1=O"
100%

Could you please provide reported cell viability for "CC(=O)N[C@@H]1[C@@H](NC(N)=N)\C=C(/O[C@H]1[C@H](O)[C@H](O)CO)C(O)=O" ? Thanks!
136%

Please give measured cell viability of the following entry: "O=[N+]([O-])c1ncc[nH]1"
93.9%

# return recorded cell viability for input "CC[C@]12CC[C@H]3[C@@H](CCC/4=C/C(=O)CC[C@H]34)[C@@H]1CC[C@@]2(O)C#C"
97.9%

Answer with the recorded cell viability for the compound listed here: CC1(CN2CCC(n3c(=O)[nH]c4ccccc43)CC2)OCc2ccccc2-n2cccc21 (stereo not given)
94.8%

Give the reported cell viability for this compound. "CCOC(=O)[C@@]1(CCCCCCOc2ccc(Cl)cc2)CO1"
102%

====

Tested on: SEM cells
experiment: cell viability relative to DMSO control; higher = less cytotoxic
applied.conditions: HPLM + 10% dialyzed FBS; 48 h; 46.1 µM
readout.type: cell viability (%)
Unit % implied. Number only.

Completed entries (count: 2):
compound	cell viability / %
CCN(CC)CCOc1ccc(Cc2ccccc2)cc1	46.6
O=C([O-])C[C@H](O)C[C@H](O)/C=C/c1c(C2CC2)nc2ccccc2c1-c1ccc(F)cc1	18.9

Using the record for "COc1ccc(C(=O)c2c(C)n(CCN3CCOCC3)c3ccccc23)cc1" , state its measured cell viability.
103

Supply recorded cell viability for "CN(C)C1=CC(=CC=C1)C\2=C\3C(=O)N(NC3=C/C(=O)N2C)C4=CC=CC=C4Cl" here.
6.91

Item "c1ccc2c(Cc3c[nH]c4ccccc34)c[nH]c2c1" : provide cell viability
18.6

# return recorded cell viability for entry N#CC(c1ccnc(NCCc2cccnc2)n1)c1nc2ccccc2s1 (stereo not given)
115

Fill in reported cell viability for this entry: "CCOc1cc2ncc(C#N)c(Nc3ccc(OCc4ccccn4)c(Cl)c3)c2cc1NC(=O)/C=C/CN(C)C"
4.72

====

Test system: SEM cells
experiment: cell viability relative to DMSO control; higher = less cytotoxic
applied.conditions: RPMI 5 mM glucose + 10% dialyzed FBS; 48 h; 0.00234 µM
Field 'label' (enum: class 1 / class 0). Set to class 1 when cell viability is strictly under 90%; else class 0.

Recorded results for 2 compounds are shown here.
> print(dat)
                                   compound  category
1  CCCC(C)(COC(N)=O)COC(=O)NC(C)C (centres undefined)   class 0
2  C[C@@H]1CCN(C(=O)CC#N)C[C@@H]1N(C)c1ncnc2[nH]ccc12   class 0

Now, please, on to the next compound.
Hello, I'm reviewing records and need to know if cell viability of "[O-]C(=O)C/1=N/C(=O)NC(=O)N1" is below 90%. Could you check?
class 0

====

Recorded measurements of cell viability, one per entry
System: SEM cells
experiment: cell viability relative to DMSO control; higher = less cytotoxic
applied.conditions: RPMI 5 mM glucose + 10% dialyzed FBS; 48 h; 0.00702 µM
Dear colleague, please return just the value in %, with no unit written.

Use these answered entries as a reference point.
entry.smiles	recorded.result
C[C@]12Cc3cn[nH]c3C[C@@H]1CC[C@@H]1[C@@H]2CC[C@@]2(C)[C@H]1CC[C@]2(C)O	106
OC1=CC=C(C=C1)\C2=C\OC3=C(C(=CC(=C3)O)O)C2=O	104
NC[C@@H]1O[C@H](O[C@H]2[C@@H](O)[C@H](O[C@@H]3[C@@H](O)[C@H](N)C[C@H](N)[C@H]3O[C@H]3O[C@H](CN)[C@@H](O)[C@H](O)[C@H]3N)O[C@@H]2CO)[C@H](N)[C@@H](O)[C@@H]1O.O=S(=O)(O)O.O=S(=O)(O)O.O=S(=O)(O)O	116
c1ccc2c(Cc3c[nH]c4ccccc34)c[nH]c2c1	109
CC(C)=CCC/C(C)=C/CC/C(C)=C/CC/C(C)=C/CC/C(C)=C/CC/C(C)=C/CC/C(C)=C/CC/C(C)=C/CC/C(C)=C/CO	95.6

Look up and report measured cell viability for this entry: "N#Cc1ccc(Oc2ccc3c(c2)COB3O)cc1"
119

Provide only the value of recorded cell viability for "CC[N+](CC)(CC)CCOc1cccc(OCC[N+](CC)(CC)CC)c1OCC[N+](CC)(CC)CC"
121

====

System: P12-Ichikawa
experiment: cell viability relative to DMSO control; higher = less cytotoxic
applied.conditions: RPMI 5 mM glucose + 10% dialyzed FBS; 48 h; 5.12 µM
readout.type: cell viability (%)
# output: bare number, implied unit %

Complete the entry with cell viability for "C[C@@H]1CN(Cc2ccc(F)cc2)[C@@H](C)CN1C(=O)c1cc2c(C(=O)C(=O)N(C)C)cn(C)c2cc1Cl"
123

// Input: "N\C1=N\C2=C(N=C[N]2COCCO)C(=O)N1" . Output its cell viability only.
98.9

Give recorded cell viability. "C/C(=N\NC(=S)N1CCC1)c1ccccn1"
3.26

Identify cell viability associated with the molecule "O=C(CCCCCCC(=O)Nc1cccnc1)NO"
73.9

Return cell viability (reported value) for this molecule: C=C1C(=O)OC(CCCCCCCC)C1C(=O)O (centres undefined)
133

====

Test system: P12-Ichikawa
experiment: cell viability relative to DMSO control; higher = less cytotoxic
applied.conditions: HPLM + 10% dialyzed FBS; 48 h; 46.1 µM
cell viability under 90% gets t, anything at or over 90% gets f.

Would you please look over these solved cases?
> print(dat)
                                   compound  category
1                   CC(C)(S)[C@@H](N)C(=O)O         f
2  CC(C)=CCC/C(C)=C/CC/C(C)=C/CC/C(C)=C/CC/C(C)=C/CC/C(C)=C/CC/C(C)=C/CC/C(C)=C/CC/C(C)=C/CO         f
3  CC(C)=CCC/C(C)=C/CC/C(C)=C/CSc1ccccc1C(=O)O         t
4  OC[C@H]1O[C@H](C[C@@H]1O)N2\C=C(F)/C(=O)NC2=O         t
5  Cc1cn([C@H]2C=C[C@@H](CO)O2)c(=O)[nH]c1=O         f

Decide: cell viability of "O=C([O-])C[C@H](O)C[C@H](O)/C=C/c1c(C2CC2)nc2ccccc2c1-c1ccc(F)cc1" strictly below 90%?
t

hey, is cell viability for O=C(O)CCCCC(CCSCc1ccccc1)SCc1ccccc1 (centres undefined) lower than 90% or not?
t

Lab note: cell viability threshold 90%. Does this compound come in strictly under it? "O=C(Nc1c[nH]nc1-c1nc2cc(CN3CCOCC3)ccc2[nH]1)NC1CC1"
t

Strictly below 90% in cell viability? CC1(CN2CCC(n3c(=O)[nH]c4ccccc43)CC2)OCc2ccccc2-n2cccc21 (centres undefined)
f

====

Each record here notes measured AUC of viability dose-response curve.
System: SEM cells
experiment: AUC of viability dose-response curve (% viability x log10 dose units); higher = less sensitive
applied.conditions: HPLM + 10% dialyzed FBS; 48 h

compound	recorded.result
C=C1/C(=C/C=C2\CCCC3(C)[C@@H]([C@H](C)/C=C/C=C/C(O)(CC)CC)CC[C@@H]23)C[C@@H](O)C[C@@H]1O (some centres undefined)	463
C[C@@H](NCCCc1cccc(C(F)(F)F)c1)c1cccc2ccccc12	467
CCC(C)N1\N=C/N(C1=O)C2=CC=C(C=C2)N3CCN(CC3)C4=CC=C(OC[C@H]5CO[C@@](C[N]6C=NC=N6)(O5)C7=CC=C(Cl)C=C7Cl)C=C4 (some centres undefined)	468

Given the compound "CCC[S+](=O)([O-])Nc1ccc(F)c(C(=O)c2c[nH]c3ncc(Cl)cc23)c1F" , write its reported AUC of viability dose-response curve.
409
